Measured Target: T1, PSMA Fab (006 PSMA Fab)
T1 construct: also called Anti-PSMA Fab
Protocol Summary: clonal phage ELISA on captured PSMA Fab pre-incubated with PSMA antigen as competitor;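 note: crude clonal phage supernatants added to wells without washing away the PSMA competitor, bound phage detected by HRP-conjugated anti-M13 antibody, reference wells received blocking buffer only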
Is Phage binding ELISA signal, Anti-PSMA Fab with PSMA antigen at least 0.07? Then rule met. If not, rule not met.

EMSLCIPAWMCSVF [Phage-3685]
rule not met
YTVQCVPTWMCAGL [Phage-3680]
rule not met
DAMMCKPTWMCDGF [Phage-3675]
rule not met
MIKMCKPYWMCEAM [Phage-3679]
rule met
ADMRCVPDWMCHGF [Phage-3686]
rule met
PEARCIPMWMCERL [Phage-3676]
rule met
LGKICSPAWMCSGF [Phage-3673]
rule not met
